Tested on: WM1552C (Melanoma);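 further: after 72 h of two-drug dosing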
Assay: Bliss excess, mean over the matrix (fraction); higher = more synergy
Reported Bliss excess values for the following molecules.

molecule | Bliss excess
CN(CCO)CC[C@H](CSc1ccccc1)Nc1ccc(S(=O)(=O)NC(=O)c2ccc(N3CCC([C@@H](O)c4ccccc4-c4ccc(Cl)cc4)CC3)cc2)cc1S(=O)(=O)C(F)(F)F [AZD4320] + Cn1cnc2c(F)c(Nc3ccc(Br)cc3Cl)c(C(=O)NOCCO)cc21 [Selumetinib] (first compound max 1 µM, 7x7, partner max 3 µM) | 0.0035
Cc1c2c(nn1C)CSCc1cc(n(C)n1)CSc1cc(c3ccccc3c1)OCCCc1c(C(=O)O)n(C)c3c-2c(Cl)ccc13 [AZD5991] + C[C@@H]1COCCN1C2=NC(=NC(=C2)C3(CC3)[S@](=N)(=O)C)C4=C5C=CNC5=NC=C4 [AZD6738] (first compound max 1 µM, 7x7, partner max 10 µM) | -0.0084
COc1cccc(OCCCN)c1-c1cc(Nc2cnc(C#N)cn2)n[nH]1 [Prexasertib] + CCc1c2c(nc3ccc(O)cc13)-c1cc3c(c(=O)n1C2)COC(=O)[C@]3(O)CC [SN-38] (first compound max 1 µM, 7x7, partner max 0.3 µM) | -0.0306
C[C@@H](c1ccc2nccn2c1)n1nnc2ncc(-c3cnn(C)c3)nc21 [Savolitinib] + Cc1c2c(nn1C)CSCc1cc(n(C)n1)CSc1cc(c3ccccc3c1)OCCCc1c(C(=O)O)n(C)c3c-2c(Cl)ccc13 [AZD5991] (first compound max 1 µM, 7x7, partner max 1 µM) | -0.079

---

System: JIMT-1 (Breast Carcinoma)
Assay: combination Emax (second highest fraction inhibited in the dose matrix, 72 h); higher = more inhibition; extreme values may be limits of the assay

molecule | combination Emax
COc1cccc(OCCCN)c1-c1cc(Nc2cnc(C#N)cn2)n[nH]1 [Prexasertib] + C[C@@H]1COCCN1C2=NC(=NC(=C2)C3(CC3)[S@](=N)(=O)C)C4=C5C=CNC5=NC=C4 [AZD6738] (first compound max 1 µM, 7x7, partner max 10 µM) | 0.857
COc1nnc2ccc(N3CCC(c4ccc(OCCN5CCN(C)C(=O)[C@H]5C)cc4)CC3)nn12 [AZD5153] + C=CCn1c(=O)c2cnc(Nc3ccc(N4CCN(C)CC4)cc3)nc2n1-c1cccc(C(C)(C)O)n1 [AZD1775] (first compound max 1 µM, partner max 1 µM) | 0.622
COc1cc2ncnc(Nc3ccc(F)c(Cl)c3)c2cc1OCCCN1CCOCC1 [Gefitinib] + CC(C)n1c(=O)n(C)c2cnc3cc(F)c(-c4ccc(OCCCN5CCCCC5)nc4)cc3c21 [AZD1390] (first compound max 10 µM, 7x7, partner max 0.3 µM) | 0.491
COc1nnc2ccc(N3CCC(c4ccc(OCCN5CCN(C)C(=O)[C@H]5C)cc4)CC3)nn12 [AZD5153] + CC1(C)CCC(CN2CCN(c3ccc(C(=O)NS(=O)(=O)c4ccc(NCC5CCOCC5)c([N+](=O)[O-])c4)c(Oc4cnc5[nH]ccc5c4)c3)CC2)=C(c2ccc(Cl)cc2)C1 [Venetoclax] (first compound max 1 µM, 7x7, partner max 1 µM) | 0.311
CC1(C)CCC(CN2CCN(c3ccc(C(=O)NS(=O)(=O)c4ccc(NCC5CCOCC5)c([N+](=O)[O-])c4)c(Oc4cnc5[nH]ccc5c4)c3)CC2)=C(c2ccc(Cl)cc2)C1 [Venetoclax] + C1CN(CCC1(C(=O)N[C@@H](CCO)C2=CC=C(C=C2)Cl)N)C3=NC=NC4=C3C=CN4 [Capivasertib] (first compound max 1 µM, 7x7, partner max 3 µM) | 0.188
CS(=O)(=O)CCNCc1ccc(-c2ccc3ncnc(Nc4ccc(OCc5cccc(F)c5)c(Cl)c4)c3c2)o1 [Lapatinib] + C[C@@H](Oc1cc(-c2cnn(C3CCNCC3)c2)cnc1N)c1c(Cl)ccc(F)c1Cl [Crizotinib] (first compound max 10 µM, 7x7, partner max 10 µM) | 0.851
CN(C)CCCOc1ccc(-c2ccc3ncc4c(c3c2)n(C2CCOCC2)c(=O)n4C)cn1 [AZD0156] + O=C(c1cc(Cc2n[nH]c(=O)c3ccccc23)ccc1F)N1CCN(C(=O)C2CC2)CC1 [Olaparib] (first compound max 3 µM, partner max 3 µM) | 0.0881
CN(C)CCCOc1ccc(-c2ccc3ncc4c(c3c2)n(C2CCOCC2)c(=O)n4C)cn1 [AZD0156] + C[C@@H]1COCCN1C2=NC(=NC(=C2)C3(CC3)[S@](=N)(=O)C)C4=C5C=CNC5=NC=C4 [AZD6738] (first compound max 1 µM, 7x7, partner max 10 µM) | 0.799
COc1nnc2ccc(N3CCC(c4ccc(OCCN5CCN(C)C(=O)[C@H]5C)cc4)CC3)nn12 [AZD5153] + Cn1cnc2c(F)c(Nc3ccc(Br)cc3Cl)c(C(=O)NOCCO)cc21 [Selumetinib] (first compound max 1 µM, 7x7, partner max 10 µM) | 0.426
Cc1cc2ncnn2cc1Nc1ncc2c(n1)n(C1CCOCC1)c(=O)n2C [AZD7648] + CCN(CCO)CCCOc1ccc2c(Nc3cc(CC(=O)Nc4cccc(F)c4)[nH]n3)ncnc2c1 [AZD2811] (first compound max 10 µM, 7x7, partner max 1 µM) | 0.348
Cc1cc2ncnn2cc1Nc1ncc2c(n1)n(C1CCOCC1)c(=O)n2C [AZD7648] + C=CCn1c(=O)c2cnc(Nc3ccc(N4CCN(C)CC4)cc3)nc2n1-c1cccc(C(C)(C)O)n1 [AZD1775] (first compound max 10 µM, partner max 1 µM) | 0.721
CN(C)CCCOc1ccc(-c2ccc3ncc4c(c3c2)n(C2CCOCC2)c(=O)n4C)cn1 [AZD0156] + C=CCn1c(=O)c2cnc(Nc3ccc(N4CCN(C)CC4)cc3)nc2n1-c1cccc(C(C)(C)O)n1 [AZD1775] (first compound max 1 µM, partner max 1 µM) | 0.488

---

Tested on: JHH-2 (Hepatocellular Carcinoma)
Test: combination Emax (second highest fraction inhibited in the dose matrix, 72 h); higher = more inhibition; extreme values may be limits of the assay
Given measured combination Emax, output Fulfilled if it is greater than or equal to 0.6 and Not fulfilled if not.

compound | class_label
COc1nnc2ccc(N3CCC(c4ccc(OCCN5CCN(C)C(=O)[C@H]5C)cc4)CC3)nn12 [AZD5153] + CC1(C)CCC(CN2CCN(c3ccc(C(=O)NS(=O)(=O)c4ccc(NCC5CCOCC5)c([N+](=O)[O-])c4)c(Oc4cnc5[nH]ccc5c4)c3)CC2)=C(c2ccc(Cl)cc2)C1 [Venetoclax] (first compound max 1 µM, 7x7, partner max 1 µM) | Not fulfilled
CC(=O)c1c(C)c2cnc(Nc3ccc(N4CCNCC4)cn3)nc2n(C2CCCC2)c1=O [Palbociclib] + CC1(C)CCC(CN2CCN(c3ccc(C(=O)NS(=O)(=O)c4ccc(NCC5CCOCC5)c([N+](=O)[O-])c4)c(Oc4cnc5[nH]ccc5c4)c3)CC2)=C(c2ccc(Cl)cc2)C1 [Venetoclax] (first compound max 10 µM, 7x7, partner max 1 µM) | Not fulfilled
C=CCn1c(=O)c2cnc(Nc3ccc(N4CCN(C)CC4)cc3)nc2n1-c1cccc(C(C)(C)O)n1 [AZD1775] + O=C(c1cc(Cc2n[nH]c(=O)c3ccccc23)ccc1F)N1CCN(C(=O)C2CC2)CC1 [Olaparib] (first compound max 1 µM, partner max 10 µM) | Not fulfilled
Cn1cnc2c(F)c(Nc3ccc(Br)cc3Cl)c(C(=O)NOCCO)cc21 [Selumetinib] + C[C@@H]1COCCN1C2=NC(=NC(=C2)C3(CC3)[S@](=N)(=O)C)C4=C5C=CNC5=NC=C4 [AZD6738] (first compound max 10 µM, 7x7, partner max 10 µM) | Fulfilled
COc1cccc(OCCCN)c1-c1cc(Nc2cnc(C#N)cn2)n[nH]1 [Prexasertib] + CN(C)CCCOc1ccc(-c2ccc3ncc4c(c3c2)n(C2CCOCC2)c(=O)n4C)cn1 [AZD0156] (first compound max 1 µM, 7x7, partner max 1 µM) | Fulfilled
N#Cc1cnc(Nc2cc(NC[C@H]3CNCCO3)c(C(F)(F)F)cn2)cn1 [SRA737] + Nc1ccn([C@@H]2O[C@H](CO)[C@@H](O)C2(F)F)c(=O)n1 [Gemcitabine] (first compound max 10 µM, 7x7, partner max 0.3 µM) | Fulfilled
NC1(C(=O)N[C@@H](CCO)c2ccc(Cl)cc2)CCN(c2ncnc3[nH]ccc23)CC1 [Capivasertib] + Cn1cnc2c(F)c(Nc3ccc(Br)cc3Cl)c(C(=O)NOCCO)cc21 [Selumetinib] (first compound max 10 µM, 7x7, partner max 10 µM) | Fulfilled
N#Cc1cnc(Nc2cc(NC[C@H]3CNCCO3)c(C(F)(F)F)cn2)cn1 [SRA737] + C=CCn1c(=O)c2cnc(Nc3ccc(N4CCN(C)CC4)cc3)nc2n1-c1cccc(C(C)(C)O)n1 [AZD1775] (first compound max 10 µM, partner max 1 µM) | Fulfilled
Cc1cc2ncnn2cc1Nc1ncc2c(n1)n(C1CCOCC1)c(=O)n2C [AZD7648] + O=C(c1cc(Cc2n[nH]c(=O)c3ccccc23)ccc1F)N1CCN(C(=O)C2CC2)CC1 [Olaparib] (first compound max 10 µM, 7x7, partner max 10 µM) | Not fulfilled
